- SYSTEM UNDER TEST: UniProt P49238
- TEST NAME: hCX3CR1 [125I]-CX3CL1 displacement binding (SPA)
- PROTOCOL CONDITIONS: CHO-hCX3CR1 membranes, [125I]-CX3CL1, SPA beads
RECORDED ENDPOINT: IC50 (nM)
Kindly answer with a numeric value in nM, unit omitted.

Example entries and their recorded answers appear below.
>>> df
                                   compound  readout_value
0  CC(C)C[C@H](CO)Nc1nc(CC(C)c2ccnc(Cl)c2)nc(NS(C)(=O)=O)n1 (stereo in doubt) [Example 26]            682
1  COc1ccc([C@H](C)Cc2nc(N[C@@H](CO)CC(C)C)nc(NS(C)(=O)=O)n2)cn1 (single isomer, unassigned) [Example 76]            886

Read the next record carefully.
Provide measured IC50 value, entry: CC(C)C[C@H](CO)Nc1nc(C[C@@H](C)c2ccc(F)cc2F)nc(NS(C)(=O)=O)n1 (single isomer, unassigned) [Example 6] 948

* * *

- SYSTEM UNDER TEST: CX3CR1 (Homo sapiens (Human), UniProt P49238)
- Sequence (P49238 whole entry): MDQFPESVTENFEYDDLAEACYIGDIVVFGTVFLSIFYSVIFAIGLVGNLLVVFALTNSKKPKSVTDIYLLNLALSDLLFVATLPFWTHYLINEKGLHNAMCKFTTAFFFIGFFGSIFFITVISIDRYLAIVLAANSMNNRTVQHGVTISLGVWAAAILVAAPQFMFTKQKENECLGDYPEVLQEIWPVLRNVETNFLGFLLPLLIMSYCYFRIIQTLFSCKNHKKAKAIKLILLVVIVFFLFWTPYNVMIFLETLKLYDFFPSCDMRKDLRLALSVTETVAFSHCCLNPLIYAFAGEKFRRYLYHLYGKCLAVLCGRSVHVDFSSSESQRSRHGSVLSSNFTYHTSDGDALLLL
- TEST NAME: hCX3CR1 [3H]-AZD8797 competitive binding assay (filter)
- PROTOCOL CONDITIONS: CHO-hCX3CR1 membranes, 2 nM [3H]-AZD8797
pIC50: −log10 of the molar value.
# binarize pIC50: threshold 6 inclusive, high side fulfilled, low side not fulfilled

>>> print(df.to_string())
                                   molecule                         system_under_test  class_assignment
0  CC(C)C[C@H](CO)Nc1nc(C[C@H](C)c2ccc(Cl)c(F)c2F)nc(NS(C)(=O)=O)n1 (single isomer, unassigned)  CX3CR1 (Homo sapiens (Human), UniProt P49238)         fulfilled
1  CC(C)C[C@H](CO)Nc1nc(CC(C)c2cccc(Cl)c2O)nc(NS(C)(=O)=O)n1 (stereo partly drawn)  CX3CR1 (Homo sapiens (Human), UniProt P49238)         fulfilled

Does the reported pIC50 for COc1ncc([C@H](C)Cc2nc(N[C@@H](CO)CC(C)C)nc(NS(C)(=O)=O)n2)cc1F (single isomer, unassigned) fall at or above the 6 mark? fulfilled

I'd appreciate it if you could say whether COc1ncc([C@@H](C)Cc2nc(N[C@@H](CO)CC(C)C)nc(NS(C)(=O)=O)n2)cc1C (single isomer, unassigned) has pIC50 at least equal to 6. not fulfilled

Is the recorded value of pIC50 equal to or greater than 6 for this molecule? CC(C)C[C@H](CO)Nc1nc(C[C@H](C)c2ccccc2F)nc(NS(C)(=O)=O)n1 (single isomer, unassigned) fulfilled

Is pIC50 at least 6? Consider CC(C)C[C@H](CO)Nc1nc(C[C@H](C)c2cc(F)c(F)cc2F)nc(NS(C)(=O)=O)n1 (single isomer, unassigned) not fulfilled
